System: Ps. aeruginosa IFO3445
Assay: Antibacterial activity (MIC), agar dilution
Assay type: cell-based
Details: Pseudomonas aeruginosa; Ps. aeruginosa IFO3445; 10^6 cells per ml; 37° C., 20 hours; read-out: MIC
Recorded measurements of log10 of MIC, one per entry
property.label: log10 of MIC (log10 of the value in µg/mL)

compound: O=C(O)c1cn(-c2ccc(O)cc2)c(-c2ccc3ccccc3c2)cc1=O
log10 of MIC: 0.80

compound: Cc1cc(O)ccc1-n1cc(C(=O)O)c(=O)cc1-c1ccc2[nH]ccc2c1
log10 of MIC: 0.80

compound: O=C(O)c1cn(-c2ccc(O)cc2)c(-c2ccc3cccnc3c2)cc1=O
log10 of MIC: 1.40

compound: Cc1nc(-c2ccc(-c3cc(=O)c(C(=O)O)cn3-c3ccc(F)cc3)cc2)cs1
log10 of MIC: 1.40

compound: CC1Cc2cc(-c3cc(=O)c(C(=O)O)cn3-c3ccc(O)cc3)ccc2O1 (stereo not drawn)
log10 of MIC: 1.70

compound: O=C(O)c1cn(-c2ccc(F)cc2)c(C=Cc2ccncc2)cc1=O
log10 of MIC: 1.70

compound: CN(C)c1ccc(-c2cc(=O)c(C(=O)O)cn2-c2ccc(O)cc2)cc1 [drawing 206]
log10 of MIC: 0.50

compound: CC(=O)Oc1ccc(-n2cc(C(=O)OCC(O)CO)c(=O)cc2-c2ccc(N(C)C)cc2)cc1 (stereo not drawn)
log10 of MIC: 1.70

compound: Cc1nc2ccc(-c3cc(=O)c(C(=O)O)cn3-c3ccc(O)cc3)cc2s1
log10 of MIC: 1.40

compound: O=C(O)c1cn(-c2ccc(O)cc2)c(-c2ccc3occc3c2)cc1=O
log10 of MIC: 1.10

compound: CNc1ccc(-c2cc(=O)c(C(=O)O)cn2-c2ccc(O)cc2)cc1C
log10 of MIC: 0.50

compound: O=C(O)c1cn(-c2ccc(F)cc2)c(-c2ccc(Cl)s2)cc1=O
log10 of MIC: 1.70

compound: Cc1cc(O)ccc1-n1cc(C(=O)O)c(=O)cc1-c1ccc2c(c1)NCCN2C
log10 of MIC: 1.40

compound: Cc1ccc(-c2cc(=O)c(C(=O)O)cn2-c2ccc(O)cc2)s1
log10 of MIC: 0.50

compound: CC(=O)Oc1ccc(-n2cc(C(=O)O)c(=O)cc2-c2ccc(N(C)C)cc2)c(C)c1
log10 of MIC: 0.80

compound: CN1CCc2cc(-c3cc(=O)c(C(=O)O)cn3-c3ccc(O)cc3)ccc21
log10 of MIC: 1.10

compound: O=C(O)c1cn(-c2ccc(O)cc2)c(-c2ccc(-c3ccc(Cl)s3)cc2)cc1=O
log10 of MIC: 0.50

compound: O=C(O)c1cn(-c2ccc(O)cc2F)c(-c2ccc(N3CCOCC3)cc2)cc1=O
log10 of MIC: 2.00

compound: CN(C)c1ccc(-c2cc(=O)c(C(=O)O)cn2-c2ccc(F)cc2O)cc1
log10 of MIC: 1.10

compound: CN1CCOc2cc(-c3cc(=O)c(C(=O)O)cn3-c3ccc(O)cc3F)ccc21
log10 of MIC: 0.80

compound: Cc1cc(O)ccc1-n1cc(C(=O)O)c(=O)cc1C1CC=CCC1 (stereo not drawn)
log10 of MIC: 0.80

compound: Cn1ccc2cc(-c3cc(=O)c(C(=O)O)cn3-c3ccc(O)cc3F)ccc21
log10 of MIC: 0.19

compound: Cc1cc(O)ccc1-n1cc(C(=O)O)c(=O)cc1C1CCCCC1 [drawing 12]
log10 of MIC: 1.70
